Reference source for all entries: the EternaBench riboswitch data

Test system: MS2 coat protein
Test: apparent Kd, MS2 coat protein; higher = weaker binding; RNA-MaP array
Settings: designed as: ON switch for flavin mononucleotide; no ligand
Entries annotated with measured apparent Kd

Biopolymer sequence | Target entity | apparent Kd (nM)
AAAGGAUUCAAGAAGGUACCCUAACAUGAGGAUCACCCAUGUCUCGGUGGCAUCAAGGUACCUGGUAAGGAUAUUGCAACCACU | MS2 coat protein | 39.4
AUUACCCCAUGAGGAUAUCCAAUAAGGAGAGACAUGAGGAUCACCCAUGUCGACGGACGCAUACAGGAGAAGGCAUGGACUAGC | MS2 coat protein | 13.6
AAAGCCUUUCUAGGAUAUCAAUACAGUCGUGGUUGAGAAGGAGAAACUGCGUUCUAGACAUGAGGAUCACCCAUGUCCUCAAUG | MS2 coat protein | 98.6
CACGGAAAUCAGAAGGCGCCUACACACGCAUUGCGAGGAUAUGACCGGUCGGUCCACAUGAGGAUCACCCAUGUUAACUAACGC | MS2 coat protein | 16.3
ACAAUCACAUGAGGAUCACCCAUGUUAGACAGGGUCAAUGUGAAGGAUAUGAACAAUGAAAAUACUCAGAAGGUCAUAUUGAAA | MS2 coat protein | 192
GCGUUUGCCAAAGGAUAUCAACAUGUGUUGCUUGCAUUCCUAUACAUGAGGAUCACCCAUGUGGCUGAGAAGGUUGAACACUGG | MS2 coat protein | 18.2
GAACAACAUGAGGAUCACCCAUGUGACAGCCGUCAAGGAUAUUCCGGGAAAGGAGGUCCGGAAGAAGGUGAUCGUA | MS2 coat protein | 265
CGUGGCAAUCAAGGAUAUCACUUCUAGAUACCGUGAGAAGGUGAGCGUCUCUGCAAAGAGCGGGACAUGAGGAUCACCCAUGUA | MS2 coat protein | 255

====

System: MS2 coat protein
Test: apparent Kd, MS2 coat protein; higher = weaker binding; RNA-MaP array; FMN 200 µM where present
Settings: designed as: OFF switch for flavin mononucleotide; no ligand
Assign 1 to entries whose apparent Kd meets or exceeds 0.02 µM; assign 0 to the rest.

Biopolymer sequence | Target entity | Discrete label
AAAAAGGGAGGAUAUACAUGAGGAUCACCCAUGUAUCAGACGAAAAAGAGUCUGAAGUGUAGAAGGCCCAAAAA | MS2 coat protein | 0
UAGAUGGGAGGAUAUACGUAGAUGCAGAUUCGUGUGGUGCUACAUGAGGAUCACCCAUGUAGAAGGCCCGUCUU | MS2 coat protein | 0
UGGCUACAUGAGGAUCACCCAUGUCAGGAUAUGCCGUUGGAUUGACAUCGUCGUACGGGUAGAAGGGACUGCGU | MS2 coat protein | 1
CUCAGACAUGAGGAUCACCCAUGUUAGGAUAUAUAAAAGAGCGGCAGAGCGCUCUUCCAUAGAAGGAGCAGUGU | MS2 coat protein | 1
GACUUGCUGUCAGGAUAUAACCGUCCUACACGGUUAGAAGGGACAUGAGGAUCACCCAUGUGCCAGAGCGCACGAAUUUUUUAC | MS2 coat protein | 0
AUAGAAAGAUUAAUAUGAUUACAUGAGGAUCACCCAUGUAUAAAGGAUAUCGACGUCAAUGACGUCGAGAAGGUUAUACAUAAU | MS2 coat protein | 1
UUUAAGCGAGGAUAUACAUGAGGAUCACCCAUGUCAAGUAUUCUUGACGCCGUGCUCUGUAGAAGGCGCAAUUA | MS2 coat protein | 1
GCACUGGAUGUAGGAUAUCAGGACGAUAAGUCCUGAGAAGGACAUGAGGAUCACCCAUGUCUCAAAUACCAGUGCAAUAAUAUA | MS2 coat protein | 0
AAAUUUAACGAAGGAUAUGCUAACAUGAGGAUCACCCAUGUGUGCUUUGUGUUGCUGAAAUUGGAGCAGAAGGUCGUAUACAUA | MS2 coat protein | 1
UGAUCGAAAGAUCAUAGAUUCUGCUAGGAUAUGCAGAAGUUGCGAUUUACAUGAGGAUCACCCAUGUAGAAGGAGUAGAGUCUA | MS2 coat protein | 0
GAUCGAGAACUCACGGCGUUGCACAUGAGGAUCACCCAUGUGCAGGAUAUGGCCGCCGUCGGAGGCCAGAAGGGCACAGUAGGU | MS2 coat protein | 0
GCACUGGAUGUAGGAUAUCAGGACGAUAAGUCCUGAGAAGGACAUGAGGAUCACCCAUGUAAAAUCUCACCAGUGCAUAAUAUA | MS2 coat protein | 0
AGUCGGAGCAGAGGAUAUUACAUGAGGAUCACCCAUGUAAAUGGAAUAAGCUGGAAACAGCAAUGUAAGAAGGCUGCUCCGACA | MS2 coat protein | 1
GCGUACAUAUCAGGAUAUCAUUGUAUUGUUUAACUCAGUGUAUACAUGAGGAUCACCCAUGUUCUUGAGAAGGGAUUACUACGC | MS2 coat protein | 0
GCGACGAUCGAGAAGGCCACUACAUGAGGAUCACCCAUGUCGUGGUGUAUUGGAGGAUAUCGAUCAGCGUCUUAUGAGGACAUG | MS2 coat protein | 0
CUCCAGCAAGGAUAUACAUGAGGAUCACCCAUGUAAAGACAAGAGUUGGGAGACGCAUGUAGAAGGUGCACAUC | MS2 coat protein | 1
UAGAUGGGAGGAUAUACGUAGUUGCAGGUUCGUGUGGUGCUACAUGAGGAUCACCCAUGUAGAAGGCCCGUCUU | MS2 coat protein | 0
UUGUUAUGUGUAGGAUAUGCAUAUUAUUAUUAUGCAGAAGGACAUGAGGAUCACCCAUGUAUAUUAUUAUUAUAUAUUAUAUAU | MS2 coat protein | 1
AAAGUGUGAGGAUAUCCGGGACUGGGCCGGGAGGUUCGGAAGGAGAAGGCACAUGAGGAUCACCCAUGUAACGG | MS2 coat protein | 1
GGAUAGGACAGAGGAUAUACGGAUAGGAUCUACUAUCAAACAAGUCCUACAUGAGGAUCACCCAUGUAGAAGGCUGUCCUAUCG | MS2 coat protein | 0
GUGUAGAUAGGAUAUGCUUUGAGCCUACGAAAGUACGCUCGACAUGAGGAUCACCCAUGUAGAAGGGUUUACAC | MS2 coat protein | 1
CUCUUGUAAGGAUAUGCUGCUCGUCACGAAAGUGAUGAGUAGCAGAAGGUACAUGAGGAUCACCCAUGUAAAUA | MS2 coat protein | 1
